Entries and their measured IC50 follow.
# Target entity: EGFR L858R T790M in NCI-H1975 cell line (Homo sapiens, UniProt P00533, L858R/T790M)
# Construct: host or cells: NCI-H1975
# Sequence (P00533 25-1210 T790M/L858R): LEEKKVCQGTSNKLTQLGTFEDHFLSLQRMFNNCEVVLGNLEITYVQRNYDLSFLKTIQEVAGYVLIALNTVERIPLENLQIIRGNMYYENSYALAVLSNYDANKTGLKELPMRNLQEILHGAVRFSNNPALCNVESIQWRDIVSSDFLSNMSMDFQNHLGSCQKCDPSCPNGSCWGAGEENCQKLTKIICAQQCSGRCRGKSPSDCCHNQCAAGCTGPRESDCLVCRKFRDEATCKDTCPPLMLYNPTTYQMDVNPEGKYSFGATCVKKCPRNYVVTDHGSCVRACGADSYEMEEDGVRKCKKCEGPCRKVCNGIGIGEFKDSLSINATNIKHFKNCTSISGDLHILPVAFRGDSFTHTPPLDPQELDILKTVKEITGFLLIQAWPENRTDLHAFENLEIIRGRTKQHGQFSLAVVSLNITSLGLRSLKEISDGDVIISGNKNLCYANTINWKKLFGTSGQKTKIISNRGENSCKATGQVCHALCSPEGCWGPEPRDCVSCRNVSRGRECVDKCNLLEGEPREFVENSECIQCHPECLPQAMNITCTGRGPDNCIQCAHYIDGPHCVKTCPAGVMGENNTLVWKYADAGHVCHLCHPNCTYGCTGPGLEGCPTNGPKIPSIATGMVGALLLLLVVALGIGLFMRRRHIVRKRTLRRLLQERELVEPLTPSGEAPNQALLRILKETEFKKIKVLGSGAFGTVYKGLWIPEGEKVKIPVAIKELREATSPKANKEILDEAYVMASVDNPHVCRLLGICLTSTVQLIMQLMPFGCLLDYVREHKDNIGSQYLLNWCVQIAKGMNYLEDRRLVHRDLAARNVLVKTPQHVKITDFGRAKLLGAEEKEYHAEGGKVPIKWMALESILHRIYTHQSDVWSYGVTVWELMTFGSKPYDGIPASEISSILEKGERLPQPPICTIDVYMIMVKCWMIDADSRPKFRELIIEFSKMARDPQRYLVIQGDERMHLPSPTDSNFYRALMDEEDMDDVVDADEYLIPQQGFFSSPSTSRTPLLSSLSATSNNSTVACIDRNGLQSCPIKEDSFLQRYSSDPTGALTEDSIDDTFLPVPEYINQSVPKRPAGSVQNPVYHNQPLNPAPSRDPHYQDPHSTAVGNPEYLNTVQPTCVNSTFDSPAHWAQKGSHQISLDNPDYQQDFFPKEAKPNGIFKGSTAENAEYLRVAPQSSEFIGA
# Run description: NCI-H1975 pEGFR AlphaLISA assay
# Type: cell-based
# Experimental setup: NCI-H1975 cells (EGFR L858R T790M), p-EGFR (Tyr1068), 4-5 hours incubation; read-out: Ext pEGFR H1975 GMean IC50 (nM) Protocol: @Pharmaron AlphaLISA (Num)

// below: answered compounds
# Compound, IC50
data = [
    ("CC(C)c1cnc(C(=O)NC2CCOCC2)c2cnc(Nc3ccnc(N4CC[C@@H](O)[C@@](C)(F)C4)n3)cc12 [Example 78]", "30 to 50 nM"),
    ("CNC(=O)c1ncc(C(C)C)c2cc(Nc3ccnc(N4CC[C@@H](O)[C@@](C)(F)C4)n3)ncc12 [Example 64]", "> 50 nM"),
]

q: Fill in the recorded IC50 for this compound, with EGFR L858R T790M in NCI-H1975 cell line (Homo sapiens, UniProt P00533, L858R/T790M) as test system: CC(C)c1ccc(OCCn2ccnn2)c2cnc(Nc3ccnc(N4CC[C@](C)(O)[C@H](F)C4)n3)cc12 [Example 32]
a: > 50 nM

Just for reference, patent US20240299387A1 is where these values come from.
